- Test system: HepG2
- experiment-description: cell viability relative to DMSO; higher = less toxic
- test-parameters: 72 h; 1000 nM
Below is a list of entries, each paired with its recorded cell viability value.
Returns: string containing the number followed by the unit.

molecule: O=C(Nc1cccc(Cl)c1)c1ccccn1
cell viability: 97.3%
--
molecule: O=C(Nc1cccnn1)N1CCC(=Cc2cccc(Oc3ccc(C(F)(F)F)cn3)c2)CC1
cell viability: 93.3%
--
molecule: O=C(O)CCCO [SODIUM OXYBATE]
cell viability: 90.8%

# ---- query molecule ----
Query: // query cell viability value for entry O=C(O)C[C@H]1CC[C@H](c2ccc(NC(=O)c3nnc(Nc4ccc(F)c(F)c4)o3)cc2)CC1
Result: 93%

Numbers sourced from the supplement of paper PMC13380429.
